Recorded values, source patent US20260184712A1.

- assayed.target: human ENT1 (Homo sapiens, UniProt Q99808)
- Construct: JAR cells expressing ENT1 were purchased from ATCC; host or cells: JAR cells
- assay.method.text: ENT1 binding assay (competition with Sahenta-DY647 on JAR cells)
- test.context: competition with SAHENTA-DY647 binding; IC50 categorized; read-out: Binding Assay IC50
Answer each item with its documented IC50.

>  <compound.structure.string>
Cc1nc(CNc2nc3c(OCc4ccc(C#N)cc4)ncnc3n2[C@@H]2O[C@H](C)[C@@H](O)[C@H]2O)no1

>  <value.type>
IC50

>  <result>
1 to 20 nM

$$$$

Look up IC50 for the entries below, preserving their order.
1. C[C@H]1O[C@@H](n2c(NCCCO)nc3c(OCc4ccc([N+](=O)[O-])cc4)ncnc32)[C@H](O)[C@@H]1O
2. C[C@H]1O[C@@H](n2c(NC3CCCC3)nc3c(N4CCc5ccc(C#N)cc5C4)ncnc32)[C@H](O)[C@@H]1O
3. CC(C)Nc1nc2c(OCc3ccc([N+](=O)[O-])cc3)ncnc2n1[C@@H]1O[C@H](C)[C@@H](O)[C@H]1O
4. C[C@H]1O[C@@H](n2cnc3c(OCCc4ccc(OC(F)(F)F)nc4)ncnc32)[C@H](O)[C@@H]1O
5. C[C@H]1O[C@@H](n2cnc3c(OCc4ccc(Cl)c(Cl)c4)ncnc32)[C@H](O)[C@@H]1O

1: 1 to 20 nM; 2: 1 to 20 nM; 3: < 1 nM; 4: > 500 nM; 5: > 500 nM

----------
- assayed.target: human ENT1 (Homo sapiens)
- Construct: JAR cells expressing ENT1 were purchased from ATCC; host or cells: JAR cells
- Sequence (Q99808 1-456): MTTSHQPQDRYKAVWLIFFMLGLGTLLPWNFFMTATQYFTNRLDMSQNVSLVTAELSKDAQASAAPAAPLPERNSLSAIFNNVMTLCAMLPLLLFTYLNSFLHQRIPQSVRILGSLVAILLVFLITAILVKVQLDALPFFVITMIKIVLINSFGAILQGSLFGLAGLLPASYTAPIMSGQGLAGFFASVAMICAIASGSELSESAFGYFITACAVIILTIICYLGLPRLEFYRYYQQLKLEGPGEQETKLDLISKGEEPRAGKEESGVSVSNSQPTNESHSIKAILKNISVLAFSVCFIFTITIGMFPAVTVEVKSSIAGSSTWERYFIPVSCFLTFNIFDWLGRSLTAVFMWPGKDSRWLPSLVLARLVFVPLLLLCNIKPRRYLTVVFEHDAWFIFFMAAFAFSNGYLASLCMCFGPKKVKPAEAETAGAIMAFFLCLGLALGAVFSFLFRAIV
- assay.method.text: ENT1 binding assay (competition with Sahenta-DY647 on JAR cells)
- test.context: competition with SAHENTA-DY647 binding; IC50 categorized; read-out: Binding Assay IC50
pIC50: −log10 of the molar value.
Answer each item with its documented pIC50.

>  <compound.structure.string>
C[C@H]1O[C@@H](n2cnc3c(OCc4cccc(S(C)(=O)=O)c4)ncnc32)[C@H](O)[C@@H]1O

>  <pIC50>
< 6.30

$$$$
>  <compound.structure.string>
C[C@H]1O[C@@H](n2c(N[C@H]3C[C@H](O)C3)nc3c(OCc4ccc(C#N)cc4)ncnc32)[C@H](O)[C@@H]1O

>  <pIC50>
> 9.00

$$$$
>  <compound.structure.string>
C[C@H]1O[C@@H](n2cnc3c(NCc4ccc(OCCN(C)C)cc4)ncnc32)[C@H](O)[C@@H]1O

>  <pIC50>
< 6.30

$$$$

Now for another entry.
Recall the reported pIC50 of `COC(=O)[C@H]1O[C@@H](n2cnc3c(SCc4ccc([N+](=O)[O-])cc4)ncnc32)[C@H](O)[C@@H]1O` when tested on human ENT1 (Homo sapiens).
7.70 to 9.00

----------
Answer each item with its documented IC50.
- assayed.target: human ENT1 (Homo sapiens, UniProt Q99808)
- Construct: JAR cells expressing ENT1 were purchased from ATCC; host or cells: JAR cells
- assay.method.text: ENT1 binding assay (competition with Sahenta-DY647 on JAR cells)
- test.context: competition with SAHENTA-DY647 binding; IC50 categorized; read-out: Binding Assay IC50

Worked set:
>  <molecule>
C[C@H]1O[C@@H](n2cnc3c(SCc4ccc(C(=O)O)cc4)ncnc32)[C@H](O)[C@@H]1O

>  <result>
> 500 nM

$$$$
>  <molecule>
Cc1cc(COc2ncnc3c2nc(NC2CCCC2)n3[C@@H]2O[C@H](C)[C@@H](O)[C@H]2O)ccc1[N+](=O)[O-]

>  <result>
< 1 nM

$$$$
>  <molecule>
C[C@H]1O[C@@H](n2cnc3c(NCc4ccc(Cl)c(Cl)c4)ncnc32)[C@H](O)[C@@H]1O

>  <result>
> 500 nM

$$$$
>  <molecule>
C[C@H]1O[C@@H](n2c(N[C@H]3CC[C@](C)(O)CC3)nc3c(OCc4ccc(F)cc4)ncnc32)[C@H](O)[C@@H]1O

>  <result>
1 to 20 nM

$$$$

Look up IC50 for the entries below, preserving their order.
1. C[C@H]1O[C@@H](n2c(NC3CCCC3)nc3c(OCc4ccc(C(F)(F)F)nc4)ncnc32)[C@H](O)[C@@H]1O
2. Cc1cn(C2OC(C)C(O)C2O)c2ncnc(SCc3ccc([N+](=O)[O-])cc3)c12 (single isomer, unassigned) [Compound 194]
3. C[C@H]1O[C@@H](n2cnc3c(OCc4ccc(-n5cncn5)cc4)ncnc32)[C@H](O)[C@@H]1O
4. C[C@H]1O[C@@H](n2cnc3c(OCc4ccc([N+](=O)[O-])cc4)nc(Cl)nc32)[C@H](O)[C@@H]1O
5. C[C@H]1O[C@@H](n2cnc3c(OCc4ccc(OC(F)F)cc4)nc(N)nc32)[C@H](O)[C@@H]1O
6. C[C@H]1O[C@@H](n2cnc3c(SCc4ccc(C(=N)N)cc4)ncnc32)[C@H](O)[C@@H]1O

["20 to 500 nM", "20 to 500 nM", "> 500 nM", "> 500 nM", "20 to 500 nM", "> 500 nM"]

Look up IC50 for the entries below, preserving their order.
1. O=C(NCCO)[C@H]1O[C@@H](n2cnc3c(OCc4ccc([N+](=O)[O-])cc4)ncnc32)[C@H](O)[C@@H]1O
2. C[C@H]1O[C@@H](n2cnc3c(SCc4ncc(F)cc4F)ncnc32)[C@H](O)[C@@H]1O
3. C[C@H]1O[C@@H](n2c(N[C@H]3CC[C@@](C)(O)CC3)nc3c(OCc4ccc(C(F)(F)F)cc4)ncnc32)[C@H](O)[C@@H]1O
4. C[C@H]1O[C@@H](n2c(NCCC3CCN(C)CC3)nc3c(OCc4ccc([N+](=O)[O-])cc4)ncnc32)[C@H](O)[C@@H]1O
5. C[C@H]1O[C@@H](n2c(N[C@H]3CCC(F)(F)C3)nc3c(OCc4ccc([N+](=O)[O-])cc4)ncnc32)[C@H](O)[C@@H]1O
6. Cc1nc(-c2ccc(CSc3ncnc4c3ncn4[C@@H]3O[C@H](C)[C@@H](O)[C@H]3O)cc2)no1

1. > 500 nM
2. > 500 nM
3. 1 to 20 nM
4. 20 to 500 nM
5. < 1 nM
6. 20 to 500 nM

Look up IC50 for the entries below, preserving their order.
1. C[C@H]1O[C@@H](n2c(NCC3COC3)nc3c(OCc4ccc(Cl)cc4)ncnc32)[C@H](O)[C@@H]1O
2. C[C@H]1O[C@@H](n2cnc3c(OCc4cccc(C#N)c4)ncnc32)[C@H](O)[C@@H]1O

1. > 500 nM
2. > 500 nM

Look up IC50 for the entries below, preserving their order.
1. C[C@H]1O[C@@H](n2c(N[C@H]3CC[C@@](C)(O)CC3)nc3c(OCc4ccc(Cl)cc4)ncnc32)[C@H](O)[C@@H]1O
2. CC(CCO)Nc1nc2c(OCc3ccc(OC(F)(F)F)cc3)ncnc2n1[C@@H]1O[C@H](C)[C@@H](O)[C@H]1O (some centres unmarked)

1: 1 to 20 nM; 2: 1 to 20 nM

----------
- assayed.target: human ENT1 (Homo sapiens)
- Construct: JAR cells expressing ENT1 were purchased from ATCC; host or cells: JAR cells
- Sequence (Q99808 1-456): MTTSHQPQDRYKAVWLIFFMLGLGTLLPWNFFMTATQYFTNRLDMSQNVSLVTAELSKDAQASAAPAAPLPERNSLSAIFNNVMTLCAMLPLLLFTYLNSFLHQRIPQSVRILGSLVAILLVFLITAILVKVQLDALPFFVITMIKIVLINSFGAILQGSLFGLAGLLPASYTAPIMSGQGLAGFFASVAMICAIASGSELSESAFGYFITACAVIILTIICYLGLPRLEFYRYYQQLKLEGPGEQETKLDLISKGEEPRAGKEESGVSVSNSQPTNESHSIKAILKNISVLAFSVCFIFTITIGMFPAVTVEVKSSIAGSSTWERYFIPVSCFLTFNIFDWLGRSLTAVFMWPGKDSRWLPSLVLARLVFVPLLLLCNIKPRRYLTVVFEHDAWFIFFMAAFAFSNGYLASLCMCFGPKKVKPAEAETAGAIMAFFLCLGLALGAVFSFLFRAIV
- assay.method.text: ENT1 binding assay (competition with Sahenta-DY647 on JAR cells)
- test.context: competition with SAHENTA-DY647 binding; IC50 categorized; read-out: Binding Assay IC50
value.type: IC50

Worked set:
>  <compound.structure.string>
C[C@H]1O[C@@H](n2cnc3c(OCCc4ccc(C#N)nc4)ncnc32)[C@H](O)[C@@H]1O

>  <value.type>
IC50

>  <result>
> 0.5 µM

$$$$
>  <compound.structure.string>
C[C@H]1O[C@@H](n2c(NCc3cnn(C)c3)nc3c(N4CCc5ccc([N+](=O)[O-])cc5C4)ncnc32)[C@H](O)[C@@H]1O

>  <value.type>
IC50

>  <result>
< 0.001 µM

$$$$
>  <compound.structure.string>
C[C@H]1O[C@@H](n2cnc3c(OCc4cscn4)ncnc32)[C@H](O)[C@@H]1O

>  <value.type>
IC50

>  <result>
> 0.5 µM

$$$$

Look up IC50 for the entries below, preserving their order.
1. C[C@H]1O[C@@H](n2cnc3c(C(=O)NCc4ccc(C(F)(F)F)cc4)ncnc32)[C@H](O)[C@@H]1O
2. COc1ccc(COc2ncnc3c2ncn3[C@@H]2O[C@H](C)[C@@H](O)[C@H]2O)cc1OC1CCCC1

> 0.5 µM
> 0.5 µM
